Biological target: HLA-DRB1*04:01 (Homo sapiens, UniProt P01903+P01911, A100K/A169T/F76Y/I96L/K127E/L162R/M171V/N62H/P40V/Q125Y/R42H/S133A/S149N/S66Y/V115G/V209L/W38E)
Construct: EBV transformed homozygous cell lines were used as sources of MHC molecules; endogenous in cells; host or cells: EBV transformed homozygous cell lines
Assay: HLA class II peptide binding, inhibition of radiolabeled peptide binding to purified MHC
Conditions: citrullinated 15-mer (X); purified MHC, inhibition of radiolabeled peptide binding; dash = IC50 >40,000 nM; read-out: DRB1*04:01 binding capacity, Cit peptide (IC50 nM)
Square brackets hold non-standard residues; d marks the D form. Peptide text beside a SMILES is read from it. Cit = NC(=O)NCCC[C@H](N)C(=O)O
Readout: IC50 (nM)
All answers are understood in nM, so give the number only.

Give its IC50 value. Item: CSCC[C@H](NC(=O)[C@H](CCCNC(=N)N)NC(=O)[C@H](CCCNC(=N)N)NC(=O)[C@H](Cc1ccc(O)cc1)NC(=O)[C@H](CO)NC(=O)[C@H](CO)NC(=O)[C@H](CO)NC(=O)[C@H](CO)NC(=O)[C@@H](NC(=O)[C@H](CO)NC(=O)[C@H](CCCNC(N)=O)NC(=O)[C@@H](NC(=O)[C@H](CO)NC(=O)[C@@H](N)CCSC)[C@@H](C)O)C(C)C)C(=O)N[C@@H](Cc1ccccc1)C(=O)O [MSTXSVSSSSYRRMF] (H-MST[Cit]SVSSSSYRRMF-OH)
1080

----------
Target: HLA-DRB1*01:01 (Homo sapiens, UniProt P01903+P01911, A100R/D57E/F55L/F60I/F76Y/I96L/L162R/M171V/P40L/Q125E/R42F/V115G/Y59C)
Construct: EBV transformed homozygous cell lines were used as sources of MHC molecules; endogenous in cells; host or cells: EBV transformed homozygous cell lines
Assay: HLA class II peptide binding, inhibition of radiolabeled peptide binding to purified MHC
Conditions: citrullinated 15-mer peptide (X = citrulline); purified HLA-DRB1*01:01; read-out: DRB1*01:01 binding capacity, Cit peptide (IC50 nM)
Square brackets hold non-standard residues; d marks the D form. Peptide text beside a SMILES is read from it. Cit = NC(=O)NCCC[C@H](N)C(=O)O
Readout: IC50 (nM)
All answers are understood in nM, so give the number only.

Give its IC50 value. Item: CSCC[C@H](N)C(=O)N[C@@H](C)C(=O)N[C@@H](CCCNC(=N)N)C(=O)N[C@@H](Cc1c[nH]cn1)C(=O)N[C@@H](CC(C)C)C(=O)N[C@@H](CCCNC(N)=O)C(=O)N[C@@H](CCC(=O)O)C(=O)N[C@@H](Cc1ccc(O)cc1)C(=O)N[C@@H](CCC(N)=O)C(=O)N[C@@H](CC(=O)O)C(=O)N[C@@H](CC(C)C)C(=O)N[C@@H](CC(C)C)C(=O)N[C@@H](CC(N)=O)C(=O)N[C@H](C(=O)N[C@@H](CCCCN)C(=O)O)C(C)C [MARHLXEYQDLLNVK] (H-MARHL[Cit]EYQDLLNVK-OH)
577

Give its IC50 value. Item: CC(C)C[C@H](NC(=O)[C@H](CC(N)=O)NC(=O)[C@@H](N)[C@@H](C)O)C(=O)N[C@@H](CC(=O)O)C(=O)N[C@@H](CO)C(=O)N[C@@H](CC(C)C)C(=O)N1CCC[C@H]1C(=O)N[C@@H](CC(C)C)C(=O)N[C@H](C(=O)N[C@@H](CC(=O)O)C(=O)N[C@H](C(=O)N[C@@H](Cc1c[nH]cn1)C(=O)N[C@@H](CO)C(=O)N[C@@H](CCCCN)C(=O)N[C@@H](CCCNC(N)=O)C(=O)O)[C@@H](C)O)C(C)C [TNLDSLPLVDTHSKX] (H-TNLDSLPLVDTHSK[Cit]-OH)
772

Give its IC50 value. Item: "CSCC[C@H](NC(=O)[C@H](CCC(=O)O)NC(=O)[C@H](CCC(=O)O)NC(=O)[C@H](CCCCN)NC(=O)[C@H](CCSC)NC(=O)[C@@H](N)CC(N)=O)C(=O)N[C@@H](C)C(=O)N[C@@H](CCCNC(N)=O)C(=O)N[C@@H](Cc1c[nH]cn1)C(=O)N[C@@H](CC(C)C)C(=O)N[C@@H](CCCNC(=N)N)C(=O)N[C@@H](CCC(=O)O)C(=O)N[C@@H](Cc1ccc(O)cc1)C(=O)N[C@@H](CCC(N)=O)C(=O)N[C@@H](CC(=O)O)C(=O)O"
5190

Give its IC50 value. Item: CC(C)C[C@H](NC(=O)CNC(=O)[C@@H](NC(=O)[C@H](Cc1ccccc1)NC(=O)CNC(=O)[C@H](CCCNC(N)=O)NC(=O)[C@H](Cc1c[nH]cn1)NC(=O)CN)[C@@H](C)O)C(=O)N[C@@H](CCC(N)=O)C(=O)NCC(=O)N[C@@H](CC(C)C)C(=O)N1CCC[C@H]1C(=O)NCC(=O)N1CCC[C@H]1C(=O)N1CCC[C@H]1C(=O)O [GHXGFTGLQGLPGPP] (H-GH[Cit]GFTGLQGLPGPP-OH)
0.65

Give its IC50 value. Item: CC[C@H](C)[C@H](NC(=O)[C@H](CC(C)C)NC(=O)[C@H](CC(C)C)NC(=O)[C@@H](NC(=O)[C@H](CCCNC(N)=O)NC(=O)[C@H](CCCCN)NC(=O)[C@H](CO)NC(=O)[C@H](Cc1c[nH]cn1)NC(=O)[C@@H](NC(=O)[C@H](CC(=O)O)NC(=O)[C@@H](NC(=O)[C@H](CC(C)C)NC(=O)[C@@H]1CCCN1C(=O)[C@@H](N)CC(C)C)C(C)C)[C@@H](C)O)[C@@H](C)O)C(=O)N[C@@H](CCCCN)C(=O)O [LPLVDTHSKXTLLIK] (H-LPLVDTHSK[Cit]TLLIK-OH)
344

----------
Biological target: HLA-DRB1*01:01 (Homo sapiens, UniProt P01903+P01911, A100R/D57E/F55L/F60I/F76Y/I96L/L162R/M171V/P40L/Q125E/R42F/V115G/Y59C)
Construct: EBV transformed homozygous cell lines were used as sources of MHC molecules; endogenous in cells; host or cells: EBV transformed homozygous cell lines
Assay: HLA class II peptide binding, inhibition of radiolabeled peptide binding to purified MHC
Conditions: citrullinated 15-mer (X); purified MHC, inhibition of radiolabeled peptide binding; dash = IC50 >40,000 nM; read-out: DRB1*01:01 binding capacity, Cit peptide (IC50 nM)
Square brackets hold non-standard residues; d marks the D form. Peptide text beside a SMILES is read from it. Cit = NC(=O)NCCC[C@H](N)C(=O)O
Exam item: assign Criterion met to entries whose IC50 is below 700 nM and Criterion not met to entries at or above 700 nM. Note that a value of exactly 700 nM receives Criterion not met.

Below 700 nM on IC50? Entry CSCC[C@H](NC(=O)[C@H](CCC(=O)O)NC(=O)[C@@H](N)CCC(=O)O)C(=O)N[C@@H](CC(C)C)C(=O)N[C@@H](CCC(N)=O)C(=O)N[C@@H](CCCNC(N)=O)C(=O)N[C@@H](CCC(=O)O)C(=O)N[C@@H](CCC(=O)O)C(=O)N[C@@H](C)C(=O)N[C@@H](CCC(=O)O)C(=O)N[C@@H](CC(N)=O)C(=O)N[C@H](C(=O)N[C@@H](CC(C)C)C(=O)N[C@@H](CCC(N)=O)C(=O)N[C@@H](CO)C(=O)O)[C@@H](C)O [EEMLQXEEAENTLQS] (H-EEMLQ[Cit]EEAENTLQS-OH)
Criterion not met

Below 700 nM on IC50? Entry C[C@H](NC(=O)[C@@H](NC(=O)CNC(=O)[C@@H]1CCCN1C(=O)CNC(=O)CN)[C@@H](C)O)C(=O)N[C@@H](CO)C(=O)N[C@@H](CCCNC(N)=O)C(=O)N1CCC[C@H]1C(=O)N[C@@H](CO)C(=O)N[C@@H](CO)C(=O)N[C@@H](CO)C(=O)N[C@@H](CCCNC(=N)N)C(=O)N[C@@H](CO)C(=O)N[C@@H](Cc1ccc(O)cc1)C(=O)O [GGPGTASXPSSSRSY] (H-GGPGTAS[Cit]PSSSRSY-OH)
Criterion not met

Below 700 nM on IC50? Entry CSCC[C@H](NC(=O)[C@H](CCC(=O)O)NC(=O)[C@H](CCC(=O)O)NC(=O)[C@@H](N)CCC(=O)O)C(=O)N[C@@H](CCCNC(N)=O)C(=O)N[C@@H](CCC(=O)O)C(=O)N[C@@H](CC(C)C)C(=O)N[C@@H](CCCNC(=N)N)C(=O)N[C@@H](CCCNC(=N)N)C(=O)N[C@@H](CCC(N)=O)C(=O)N[C@H](C(=O)N[C@@H](CC(=O)O)C(=O)N[C@@H](CCC(N)=O)C(=O)N[C@@H](CC(C)C)C(=O)N[C@H](C(=O)O)[C@@H](C)O)C(C)C [EEEMXELRRQVDQLT] (H-EEEM[Cit]ELRRQVDQLT-OH)
Criterion not met

Below 700 nM on IC50? Entry CC(C)C[C@H](NC(=O)[C@H](CCCNC(=N)N)NC(=O)[C@@H](NC(=O)[C@H](C)NC(=O)[C@H](CO)NC(=O)[C@H](CO)NC(=O)[C@H](CCCNC(N)=O)NC(=O)[C@@H](NC(=O)[C@H](C)NC(=O)[C@@H](N)Cc1ccc(O)cc1)[C@@H](C)O)C(C)C)C(=O)N[C@@H](CCCNC(=N)N)C(=O)N[C@@H](CO)C(=O)N[C@@H](CO)C(=O)N[C@H](C(=O)N1CCC[C@H]1C(=O)O)C(C)C [YATXSSAVRLRSSVP] (H-YAT[Cit]SSAVRLRSSVP-OH)
Criterion met

Below 700 nM on IC50? Entry CC[C@H](C)[C@H](NC(=O)[C@@H](N)CC(=O)O)C(=O)N[C@@H](CCSC)C(=O)N[C@@H](CCCNC(=N)N)C(=O)N[C@@H](CC(C)C)C(=O)N[C@@H](CCCNC(N)=O)C(=O)N[C@@H](CCC(=O)O)C(=O)N[C@@H](CCCCN)C(=O)N[C@@H](CC(C)C)C(=O)N[C@@H](CCC(N)=O)C(=O)N[C@@H](CCC(=O)O)C(=O)N[C@@H](CCC(=O)O)C(=O)N[C@@H](CCSC)C(=O)N[C@@H](CC(C)C)C(=O)N[C@@H](CCC(N)=O)C(=O)O [DIMRLXEKLQEEMLQ] (H-DIMRL[Cit]EKLQEEMLQ-OH)
Criterion not met

The origin of these recorded values is paper PMC5421785.
